Overview of reported ratio to parent across a group of variants:
B1: H2-Kb / Ed46 (parent complex)
chain 1: AQSVTQPDARVTVSEGASLQLRCKYSYFGTPYLFWYVQYPRQGLQLLLKYYPGDPVVQGVNGFEAEFSKSNSSFHLRKASVHWSDWAVYFCAVGRTGGYKVVFGSGTRLLVSP
chain 2: DSGVVQSPRHIIKEKGGRSVLTCIPISGHSNVVWYQQTLGKELKFLIQHYEKVERDKGFLPSRFSVQQFDDYHSEMNMSALELEDSAMYFCASSPRHSDYTFGSGTRLLVI
chain 3: not shown
chain 4: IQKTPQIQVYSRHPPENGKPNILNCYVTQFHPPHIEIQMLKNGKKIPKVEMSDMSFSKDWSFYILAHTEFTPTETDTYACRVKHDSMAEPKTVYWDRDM
chain 5: SIINFEKL

- Variants of: B1
- method-notes: % of reporter cells activated (NFAT-GFP), raw; also: test concentration or dose not given here
Respond numerically, and do not add a unit to the figure.

As a guide, the following entries are already answered.
mutations="chain 5 I3G" assay_result=0.202
mutations="chain 5 I3K" assay_result=0.924
mutations="chain 5 I3L" assay_result=1.05
mutations="chain 5 K7R" assay_result=0.814

Asked: Any idea what its ratio to parent is? The variant is chain 5 E6D
Given back: 1.02

Asked: Now this one: chain 5 E6N
Given back: 0.464

Asked: Now this one: chain 5 E6W
Given back: 0.038

Asked: Now this one: chain 5 S1Y
Given back: 0.795

Asked: Now this one: chain 5 I3F
Given back: 0.726

Asked: Now this one: chain 5 I3C
Given back: 0.689

Asked: Now this one: chain 5 I2Y
Given back: 0.656

Asked: Now this one: chain 5 I2S
Given back: 1.4

Asked: Now this one: chain 5 E6R
Given back: 0.632
